Test system: Mycobacterium tuberculosis
Assay: Cornell M. t heat shock assay; note: in the data most compounds retested in dose-response had high values
Assay type: functional, organism-based
Set-up: dose or concentration left out as unconfirmed
Out of some 69,000 compounds screened, about 950 (1.4%) showed an effect of 50% or more. What follows is part of a selection rich in strong results, with near analogues and random picks from the rest.
Would you mind telling me the reported Percent Effect of each entry?
Numbers only here, please. The scale is %.

Look up Percent Effect: CCOc1ncccc1NC(=O)c1cccs1 -26.07

Then this compound: COc1ccc2[nH]cc(C(=O)CNc3nc(C)cs3)c2c1.I 4.496

Entry to check: CCOc1ncccc1NC(=O)c1sccc1C 102.4

Now try CCCc1cc(=O)[nH]c(SCc2ccccn2)n1 . 69.86

Next record, please: CCCc1cc(=O)[nH]c(-c2ccccc2CN(C)CCC(C)C)n1 -7.876

Record: Cc1nnc(SCc2ccccn2)s1 4.26

Moving on to the next compound: CN1C(=O)CCC12CCN(c1ccc(C#N)cn1)CC2.O=C(O)C(F)(F)F 8.745

Moving on to CCc1c(C)nc(SCc2ccccn2)[nH]c1=O 33.29

How about this compound: Cc1cc(C)n(-c2cncc(NCCNC(=O)C(C)C)n2)n1 -20.98

Can you handle Cc1ccc2c(n1)N(CC1CC1)CCN(C(=O)c1ccncc1F)C2.O=C(O)C(F)(F)F.O=C(O)C(F)(F)F next? -13.11

Input O=C(O)C(F)(F)F.O=C(O)C(F)(F)F.O=C(c1cccc(F)c1)N1CCN2C[C@H](OCc3cccnc3)C[C@H]2C1 -1.159

* * *

Test system: Mycobacterium tuberculosis
Test: Cornell M. t heat shock assay; note: in the data most compounds retested in dose-response had high values
Type: functional, organism-based
Set-up: dose or concentration left out as unconfirmed
Out of some 69,000 compounds screened, about 950 (1.4%) showed an effect of 50% or more. The entries come from a sample that favours strong results as a whole.
Classification field: fulfilled = Percent Effect at or over 20%; not fulfilled = Percent Effect under 20%.

Assess whether reported Percent Effect for O=C(CCC1CCCO1)NS(=O)(=O)c1ccc(Cl)cc1 (stereo unspecified) sits at 20% or higher. not fulfilled

Please give the result for CS(=O)(=O)N[C@@H]1CCO[C@]2(CCN(C(=O)c3cscn3)C2)C1 too. not fulfilled

Subsequent entry: CN(CCCc1cc(-c2ccc(F)cc2)n(C)n1)CC(N)=O fulfilled

And then CN(C)[C@@H]1CCN(C(=O)c2ccccn2)[C@H]1Cc1cnn(C)c1 , what is it? fulfilled

Next: O=C(CCC1CCCO1)NCCCO (stereo unspecified) not fulfilled

# repeat for O=C(CCC1CCCO1)NCCCC(=O)Nc1ccc(Cl)cc1 (stereo unspecified) fulfilled

Same thing, different compound: COCC(C)(CCO)NC(=O)Nc1cccc(Br)c1C (stereo unspecified) not fulfilled

Another compound: CCCn1ncc(-c2ccnc(NC3CC(C)(C)NC(C)(C)C3)n2)c1C not fulfilled

Repeat for the following compound: CCCn1ncc(-c2ccnc(N[C@@H]3C[C@@H]4CC[C@H]3C4)n2)c1C fulfilled

Item: CC(C(N)=O)N(C)CCCc1cc(-c2ccc(F)cc2)n(C)n1 (stereo unspecified) fulfilled

Then CN(C)CCOCc1nnc2n1CCN(CC1CC1)CC2.O=C(O)C(F)(F)F.O=C(O)C(F)(F)F ? not fulfilled

* * *

System: Mycobacterium tuberculosis
Assay: Cornell M. t heat shock assay; note: in the data most compounds retested in dose-response had high values
Type: functional, organism-based
Design: dose or concentration left out as unconfirmed
Out of some 69,000 compounds screened, about 950 (1.4%) showed an effect of 50% or more. The full list was thinned out, with strong results kept by preference.
measurementKind: Percent Effect (%)
// units = %; emit number, no label

Query (molecule): c1ccc2c(c1)OCCCC2NCc1nnc2n1CCCCC2 (stereo not given) ; field requested: Percent Effect 7.956

Input CC1(C)CN(Cc2c[nH]c(CC3CCCC3)n2)CC[C@]1(C)O 10.2

Now consider CCN1CCC(=O)N(C)Cc2cc(F)ccc21 and answer again. 13.57

Also Cl.O=C(Nc1ccc(F)cc1)C(c1ccccc1)N1CCOCC1 (stereo not given) ? -22.41

Same lookup for COCCNC(=O)Cn1ccc2ccc(F)cc21 , please. 14.54

Follow-up item: CN1Cc2cc(F)ccc2N(CC(O)C(F)(F)F)CCC1=O (stereo not given) 54.29

Then what about the molecule CCC1=N[C@@]2(CC[C@@H]3CN(CC4CC4)C[C@@H]32)C(=O)N1C.O=C(O)C(F)(F)F ? 5.845

Now the molecule CCCC(O)CN1CCC(=O)N(CCOC)Cc2cc3c(cc21)OCO3 (stereo not given) 26.79

Follow-up item: CC(C)CCOCCNC(=O)Nc1cc(C(F)(F)F)c[nH]c1=O 62.92

Then Cc1nn(CC(=O)Nc2cccc(F)c2)c(N)c1C#N ? 4.908

Follow-up item: O=C(O)C(F)(F)F.O=C(O)C(F)(F)F.c1cc(CN2C[C@@H]3OCCN(CC4CCCO4)[C@@H]3C2)cs1 (stereo not given in full) -21.3

Same lookup for COCCNC(=O)Cn1c(-c2ccc(Cl)cc2)nc(C)c(CCO)c1=O , please. 50.09

Do the same for OC1(CN2CCCCC2)CCN(Cc2c[nH]c(CC3CCCC3)n2)C1 (stereo not given) please 56.92

Also check C[C@@H]1CN(Cc2c[nH]c(CC3CCCC3)n2)CC[C@]1(C)O -1.066

And for c1[nH]c(CC2CCCC2)nc1CN1CCCC2(CCOC2)C1 (stereo not given) ? -0.6443

Also O=C(O)C1(Oc2cccc(F)c2)CCN(C2CCOCC2)CC1 , if possible. 1.505

Next: Cc1cccc(CN2CCc3nnc(CN4CCCC4=O)n3CC2)n1.O=C(O)C(F)(F)F -34.57

Same for CC(=O)c1c(C)nn(CC(=O)Nc2ccc(Br)cc2)c1C 105.9

What do you get for O=C(NCCOc1ccccc1)Nc1cc(C(F)(F)F)c[nH]c1=O ? 24.31

How about this molecule: CCCC(O)CN1CCC(=O)N(CC)Cc2cc3c(cc21)OCO3 (stereo not given) 53.46

Try this molecule too: CC(=O)c1c(C)nn(CC(=O)Nc2ccc(F)cc2)c1C 21.2

And what about the molecule COCCNC(=O)Cn1c(-c2cccc(F)c2)nc(C)c(CCO)c1=O ? 66.78

For CCOc1nc2cccnc2n(CC(=O)NCCOC)c1=O then? 5.103

Continue with O=C(O)C1(Oc2ccc(Cl)cc2)CCN(C2CCOCC2)CC1 51.75

Same question for CC(=O)N1CC(=O)N(c2ccccc2)CC12CCN(Cc1ccoc1)C2.O=C(O)C(F)(F)F (stereo not given) please. -0.426

Entry CCCC(O)CN1CCC(=O)N(CCOC)Cc2ccccc21 (stereo not given) please 30.93

O=C(CC1CC1)N1C[C@@H]2CCN(c3cccnc3)C[C@@H]2C1.O=C(O)C(F)(F)F ? -11.14

What about this molecule? COCCNC(=O)Cn1c(-c2cccc(Cl)c2)nc(C)c(CCO)c1=O 68.55

Similarly, CCC1COCCN1C(=O)NCc1nccn1Cc1ccccc1 (stereo not given) ? -21.62

Also, COCCCNC(=O)Cn1c(-c2cccc(Cl)c2)nc(C)cc1=O please. 10.79

Queued: COc1ccc(NC(=O)Cn2nc(C)c(C)cc2=O)cc1OC 2.159

Another molecule: COc1ccc(NC(=O)Cn2nc(C)c(C(C)=O)c2C)cc1 105.6

Same read-out for COC[C@]1(O)CCN(Cc2c[nH]c(CC3CCCC3)n2)CC1(C)C ? -12.53

Record: Cc1ccc2c(c1)OCCCC2NC1CCN(C)CC1 (stereo not given) 11.02

Please answer likewise for CCN(CC)C(=O)c1nnsc1-c1ccc(Cl)cc1 -12.37

Next entry: CC(CCc1ccco1)NC(=O)Nc1cc(C(F)(F)F)c[nH]c1=O (stereo not given) 102.3

COCCN1CC[C@@H]2OC[C@H](C(=O)NCc3cccs3)C[C@@H]2C1.O=C(O)C(F)(F)F , same question. -7.487

And the next one, Cc1nn(CC(=O)Nc2ccc(F)cc2)c(N)c1C#N ? 51.75

Repeat for the following molecule: CC1CCN(c2ncc3c(n2)CN(C2CCS(=O)(=O)C2)C3=O)CC1 (stereo not given) -20.34

What do you have for Cc1ncsc1C(=O)N1CCCCC1c1cc2nc(C)c(C)c(O)n2n1 (stereo not given) ? -18.91

How about CSCC(C)C(=O)NCc1c(C)nc2cc(=O)[nH]n2c1C (stereo not given) ? 9.376

Field entry: Cc1nc(C2CCNC2)nc2c1CCC(=O)N2CC(C)C.Cl (stereo not given) -0.8245

What would you report for O=C(NCCNc1ncccn1)Nc1cc(C(F)(F)F)c[nH]c1=O ? -2.019

Also, COc1ccc(NC(=O)Cn2nc(C)c(C)cc2=O)cc1 please. 2.037

Can you check CCCC(O)CN1CCC(=O)N(CC2CC2)Cc2cc3c(cc21)OCO3 (stereo not given) next? 15.68
